For each of the compounds below, state its inhibition of growth at 200 ppm.
Tested on: Fusarium culmorum
Test: microbe, parasite or virus in culture
Format: cell-based
Details: read-out: disease control

Worked cases, answers included:
CC(C)(C#Cc1ccc(F)cc1F)NC(=O)c1cnc2c(F)cccc2c1; ≥ 80%
CC(C)C[C@@H](C#Cc1ccccc1)NC(=O)c1cnc2c(F)cccc2c1; ≥ 80%
Cc1ccc(C#N)cc1C#CC(C)(C)NC(=O)c1cnc2c(F)cccc2c1; ≥ 80%
CC(C)[C@@](C)(C#Cc1ccccc1)NC(=O)c1cnc2c(F)cccc2c1 (single isomer, unassigned); ≥ 80%
CC(C)(C#Cc1ccccc1)NC(=O)c1cnc2c(F)cccc2c1; ≥ 80%

Please look at the items below and tell me inhibition of growth at 200 ppm for each one, in order.
1. CC(C)C(C#Cc1ccccc1)NC(=O)c1cnc2c(Cl)cccc2c1 (stereo not drawn)
2. COc1ccccc1C#CC(C)(C)NC(=O)c1cnc2c(F)cccc2c1
3. CC(C)(C)C(C#Cc1ccccc1)NC(=O)c1cnc2c(F)cccc2c1 (stereo not drawn)
4. Cc1ccc(C)c(C#CC(C)(C)NC(=O)c2cnc3c(F)cccc3c2)c1

≥ 80%
≥ 80%
≥ 80%
≥ 80%

* * *

System: Botryotinia fuckeliana (Botrytis cinerea)
Assay: Botryotinia fuckeliana (Botrytis cinerea) / liquid culture (gray mould)
Assay type: cell-based
Settings: 72 h, 200 ppm, compared to untreated control, growth inhibition photometrically 3-4 days after application, read-out: disease control
For each of the compounds below, state its inhibition of growth at 200 ppm.

Cc1ccccc1C#CC(C)(C)NC(=O)c1cnc2c(F)cccc2c1 [Compound F-47]; ≥ 80%
Cc1cc(C#N)ccc1C#CC(C)(C)NC(=O)c1cnc2c(F)cccc2c1 [Compound F-34]; ≥ 80%
COc1cc(C#CC(C)(C)NC(=O)c2cnc3c(F)cccc3c2)ccc1Cl [Compound F-38]; ≥ 80%
CC(C)[C@@](C)(C#Cc1ccccc1)NC(=O)c1cnc2c(F)cccc2c1 (single isomer, unassigned) [Compound G-7]; ≥ 80%
CC(C)(C#Cc1cccc(C(F)(F)F)c1)NC(=O)c1cnc2c(F)cccc2c1 [Compound F-48]; ≥ 80%

Please look at the items below and tell me inhibition of growth at 200 ppm for each one, in order.
1. Cc1ccccc1C#CC(C)(NC(=O)c1cnc2c(F)cccc2c1)C(C)C (stereo not shown) [Compound F-13]
2. CCC(C)(C#Cc1ccccc1)NC(=O)c1cc2cccc(F)c2nc1C (stereo not shown) [Compound F-16]
3. CCC(C)(C#Cc1ccccc1C)NC(=O)c1cc2cccc(F)c2nc1C (stereo not shown) [Compound F-14]
4. CC(C)C[C@@](C)(C#Cc1ccccc1)NC(=O)c1cnc2c(F)cccc2c1 [Compound G-5]
5. CC(C)(C#Cc1ccc(F)cc1F)NC(=O)c1cnc2c(F)cccc2c1 [Compound F-25]
6. CC(C)(C#Cc1ccccc1)NC(=O)c1cnc2ccccc2c1 [Compound F-49]

1. ≥ 80%
2. ≥ 80%
3. ≥ 80%
4. ≥ 80%
5. ≥ 80%
6. ≥ 80%

Please look at the items below and tell me inhibition of growth at 200 ppm for each one, in order.
1. Cc1ccc(C)c(C#CC(C)(C)NC(=O)c2cnc3c(F)cccc3c2)c1 [Compound F-22]
2. CC(C)C(C)(C#Cc1ccccc1F)NC(=O)c1cnc2c(F)cccc2c1 (stereo not shown) [Compound F-12]

1. ≥ 80%
2. ≥ 80%
